- studyTarget: Lysine-specific demethylase 4A (Homo sapiens) (UniProt O75164)
- Sequence (O75164 whole entry, looked up, the tested form may be a part): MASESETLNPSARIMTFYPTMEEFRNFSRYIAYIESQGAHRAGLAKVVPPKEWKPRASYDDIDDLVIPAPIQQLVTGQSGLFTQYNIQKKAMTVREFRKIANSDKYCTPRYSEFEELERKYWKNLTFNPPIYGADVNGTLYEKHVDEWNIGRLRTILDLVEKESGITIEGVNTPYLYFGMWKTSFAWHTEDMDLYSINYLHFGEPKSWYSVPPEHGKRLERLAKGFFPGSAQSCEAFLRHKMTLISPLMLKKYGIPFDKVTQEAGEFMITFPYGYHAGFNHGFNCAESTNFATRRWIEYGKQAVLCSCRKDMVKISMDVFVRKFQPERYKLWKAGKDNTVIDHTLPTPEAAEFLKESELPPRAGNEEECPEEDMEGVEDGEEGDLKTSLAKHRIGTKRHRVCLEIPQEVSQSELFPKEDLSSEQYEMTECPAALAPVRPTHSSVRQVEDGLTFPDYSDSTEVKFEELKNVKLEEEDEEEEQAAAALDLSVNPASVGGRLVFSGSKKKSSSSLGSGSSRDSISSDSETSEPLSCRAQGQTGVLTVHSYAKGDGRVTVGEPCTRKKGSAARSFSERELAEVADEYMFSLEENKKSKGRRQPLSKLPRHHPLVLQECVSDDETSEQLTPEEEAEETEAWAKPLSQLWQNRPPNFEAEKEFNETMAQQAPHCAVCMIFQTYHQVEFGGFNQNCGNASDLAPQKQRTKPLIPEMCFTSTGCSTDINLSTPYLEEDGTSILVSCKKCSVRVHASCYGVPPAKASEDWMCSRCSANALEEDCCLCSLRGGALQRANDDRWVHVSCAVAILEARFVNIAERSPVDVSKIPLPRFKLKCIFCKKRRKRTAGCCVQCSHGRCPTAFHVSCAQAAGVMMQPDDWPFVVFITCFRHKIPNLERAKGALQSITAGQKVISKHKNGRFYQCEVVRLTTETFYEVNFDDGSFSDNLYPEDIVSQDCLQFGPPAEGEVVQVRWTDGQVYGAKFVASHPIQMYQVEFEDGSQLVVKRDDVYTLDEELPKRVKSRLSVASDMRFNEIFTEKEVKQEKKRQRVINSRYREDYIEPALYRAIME
- assaySummary: qHTS Assay for Inhibitors of JMJD2A-Tudor Domain; further: nearly all actives have a fitted effect of over 50% in size; further: potency means the concentration at half of the fitted maximal effect
- assaySetup: AlphaScreen JMJD2A-Tudor / H3K4me3 peptide binding; series mostly up to 114 µM
Out of some 390,000 compounds screened, about 17,000 (4.4%) were called active. Another 8% or so got no clear call; they are omitted. This excerpt belongs to a sample that is enriched for actives.
outcomeMeasure: Potency

[[record]]
compound = "O=C(c1ccco1)N(Cc1nc2ccccc2c(=O)[nH]1)C1CCCC1"
studytarget = "Lysine-specific demethylase 4A (Homo sapiens) (UniProt O75164)"
reportedresult = "inactive"

[[record]]
compound = "O=c1[nH]c(CSc2ncc(-c3ccc(F)cc3)n2Cc2ccco2)nc2ccccc12"
studytarget = "Lysine-specific demethylase 4A (Homo sapiens) (UniProt O75164)"
reportedresult = "35.5 µM (active)"

[[record]]
compound = "C=CCOc1ccc(/C=C2/C(=O)ON=C2C)cc1OCC"
studytarget = "Lysine-specific demethylase 4A (Homo sapiens) (UniProt O75164)"
reportedresult = "inactive"

[[record]]
compound = "Cc1nn(CC(=O)N2CCN(c3cccc(C(F)(F)F)c3)CC2)c(=O)c2cc3sccc3n12"
studytarget = "Lysine-specific demethylase 4A (Homo sapiens) (UniProt O75164)"
reportedresult = "inactive"

[[record]]
compound = "Cc1ccc(/C=C/C(=O)Nc2cc(S(=O)(=O)N3CCCCCC3)ccc2OCC(F)(F)F)o1"
studytarget = "Lysine-specific demethylase 4A (Homo sapiens) (UniProt O75164)"
reportedresult = "inactive"

[[record]]
compound = "CC1CCCN(c2nc3c(S(=O)(=O)c4ccc(C(C)C)cc4)nnn3c3ccsc23)C1 (stereo unspecified)"
studytarget = "Lysine-specific demethylase 4A (Homo sapiens) (UniProt O75164)"
reportedresult = "inactive"

[[record]]
compound = "CCOC(=O)N1CCN(CCC(=O)Nc2cc(OC)ccc2OC)CC1"
studytarget = "Lysine-specific demethylase 4A (Homo sapiens) (UniProt O75164)"
reportedresult = "inactive"

[[record]]
compound = "O=C(CSc1ncc(CO)n1Cc1ccc(F)cc1)NCc1ccco1"
studytarget = "Lysine-specific demethylase 4A (Homo sapiens) (UniProt O75164)"
reportedresult = "inactive"

[[record]]
compound = "Cc1cc(=O)oc2cc(OC(C)C(=O)Nc3ccc(N4CCOCC4)cc3)ccc12 (stereo unspecified)"
studytarget = "Lysine-specific demethylase 4A (Homo sapiens) (UniProt O75164)"
reportedresult = "89.1 µM (active)"

[[record]]
compound = "COc1ccc(CCNC(=O)CCCCn2c(=O)c3ccccc3n(Cc3ccccc3)c2=O)cc1OC"
studytarget = "Lysine-specific demethylase 4A (Homo sapiens) (UniProt O75164)"
reportedresult = "inactive"

[[record]]
compound = "COc1cccc(OC)c1C(=O)N1CCN(Cc2cccnc2)CC1"
studytarget = "Lysine-specific demethylase 4A (Homo sapiens) (UniProt O75164)"
reportedresult = "5.01 µM (active)"

[[record]]
compound = "CCOc1ccc(S(=O)(=O)N(CC(=O)NCCSCc2ccc(C)cc2)c2ccccc2)cc1"
studytarget = "Lysine-specific demethylase 4A (Homo sapiens) (UniProt O75164)"
reportedresult = "inactive"

[[record]]
compound = "Cc1cccc(CNC(=O)c2cnc3sc(N4CCCCC4)nn3c2=O)c1"
studytarget = "Lysine-specific demethylase 4A (Homo sapiens) (UniProt O75164)"
reportedresult = "inactive"

[[record]]
compound = "C#CCOc1ccccc1/C=C1/C(=O)ON=C1C"
studytarget = "Lysine-specific demethylase 4A (Homo sapiens) (UniProt O75164)"
reportedresult = "inactive"

[[record]]
compound = "Cc1ccc(/C=C/C(=O)Nc2ccc([N+](=O)[O-])c(NC(=O)/C=C/c3ccc(C)o3)c2)o1"
studytarget = "Lysine-specific demethylase 4A (Homo sapiens) (UniProt O75164)"
reportedresult = "79.4 µM (active)"

[[record]]
compound = "COc1cccc(OC)c1OCCN1CCN(C(=O)c2ccco2)CC1"
studytarget = "Lysine-specific demethylase 4A (Homo sapiens) (UniProt O75164)"
reportedresult = "inactive"

